Where do these numbers come from? They come from patent US20260294922A1.

# targetUnderTest: JNK1 (Homo sapiens, UniProt P45983)
# Sequence (P45983 whole entry): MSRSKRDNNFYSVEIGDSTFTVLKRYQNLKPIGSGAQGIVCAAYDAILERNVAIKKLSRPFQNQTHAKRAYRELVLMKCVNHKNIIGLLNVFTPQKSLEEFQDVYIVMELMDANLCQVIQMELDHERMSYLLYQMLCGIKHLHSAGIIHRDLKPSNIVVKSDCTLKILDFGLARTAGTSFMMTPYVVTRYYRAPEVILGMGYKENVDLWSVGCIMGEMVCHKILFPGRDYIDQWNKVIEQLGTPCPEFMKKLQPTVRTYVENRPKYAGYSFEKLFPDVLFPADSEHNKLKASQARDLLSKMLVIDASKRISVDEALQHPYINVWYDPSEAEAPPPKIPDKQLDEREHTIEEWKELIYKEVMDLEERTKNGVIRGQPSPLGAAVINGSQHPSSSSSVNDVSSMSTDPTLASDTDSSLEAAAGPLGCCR
# testDetails: JNK1 kinase (intrinsic ATPase, Kinase-Glo) assay
# Type: biochemical
reportedProperty: pKd
Answer as the number alone; pKd is minus log10 of concentration in mol/L.

Illustrative cases are given below, each with its answer.
INSERT INTO measurements (chemicalsmiles, reportedproperty, quantitativeresult) VALUES
  ('CN(C)C(=O)c1cc(NC(=O)c2cc3c(-c4cnc5[nH]ccc5c4)cccc3o2)ccc1O', 'pKd', 8.82),
  ('Cc1c[nH]c2ncc(-c3cccc4sc(C(=O)Nc5ccc(O)c(C(=O)N(C)C)c5)cc34)cc12', 'pKd', 9.41),
  ('COc1ccc(NC(=O)c2cc3c(-c4cnc5[nH]cc(C)c5c4)cccc3s2)cc1C(=O)N(C)C', 'pKd', 9.77),
  ('CNCc1ccc(NC(=O)c2ccc3ncc(-c4cnc5[nH]ccc5c4)n3c2)cc1', 'pKd', 8.51),
  ('CN(C)C(=O)c1cc(NC(=O)c2cc3c(-c4cnc5[nH]ccc5c4)cccc3s2)ccc1C(F)(F)F', 'pKd', 7.84);

Here is the next item to consider.
Please look up its pKd: COc1ccc(NC(=O)c2cc3c(-c4cnc5[nH]ccc5c4)cccc3s2)cc1C(=O)N1CCN(C)CC1 9.24
